- System: Hepatitis B virus
- method_notes: Antiviral activity against HBV C2 infected in human Huh-7 cells assessed as reduction in HBV DNA production by real-time qPCR analysis
- Assay type: functional, organism-based
- condition_description: C2, Huh-7
measurement_label: IC50 (µM)
Numbers only, in µM.

Lookup: Dear colleague, I am looking for the recorded IC50 of the following compound: "N#C[C@]1(CO)/C(=C\F)[C@@H](n2cnc3c(=O)[nH]c(N)nc32)C[C@@H]1O"
Found: 0.7

###

- Tested on: Hepatitis B virus
- method_notes: Antiviral activity against lamivudine-resistant HBV infected in human HepG2 cells assessed as reduction in HBV DNA replication by RT-PCR analysis
- Format: functional, organism-based
measurement_label: EC50 (µM)
Answers are plain numbers, in µM.

Lookup: Consider the molecule "Clc1ccc(/C=C/c2cc(Cl)cc(Cl)c2)cc1" and give its measured EC50.
Found: 16.4

###

- method_notes: Cytotoxicity against human primary hepatocytes assessed as cell viability incubated for 72 hrs by MTS assay
- Assay type: toxicity, cell-based, Hepatocyte
measurement_label: CC50 at 72 h

1) CC(=O)c1cc(O)c(=O)c(O)cc1C :: > 100 µM
2) Cc1c(O)c2cc(Br)cnc2n(O)c1=O :: > 100 µM

Could you now look at the following compound, please?
Lookup: Report CC50 at 72 h for "C/C(=N\OCc1ccc(F)cc1)c1c(C)cc(=O)n(O)c1O" please.
Found: > 100 µM
